- System: 786-0 renal
- procedureSummary: NCI-60 one-dose screen, 48 h
- conditionSummary: 10 µM unless noted
The panel holds about 83,000 compounds, 20% with a hit somewhere; the sample as a whole holds those more often. Activity calls are given as the source filed them. Rule for the calls: active = growth percent below 10; inactive = the rest.
Parameter call: string, one of active, inactive

>>> labelvalue("O=C(Nc1nc(-c2ccccc2Cl)cs1)c1cc(-c2ccc(Br)cc2)nc2ccccc12")
"inactive"

Challenge: Look up the recorded call for CC1=C(CCCOC(=O)NCCCl)C2=C(C)C3(CC3)[C@@](C)(O)C(=O)C2=C1 in this test.
Response given: inactive

Challenge: Hello, I am checking results. What call was entered for COC(=O)c1ccc(NC(=O)CSc2nc(-c3ccc(F)cc3)nc3ccccc23)cc1 ?
Response given: inactive

Challenge: Can you look up the reported call for C=C1C(=O)O[C@H]2[C@H]1CC/C(COC(=O)c1c[nH]c3ccccc13)=C\CC[C@@]1(C)O[C@@H]21 for me?
Response given: active

Challenge: What did the test return for C=C(C)[C@@H]1CC[C@]2(C(N)=O)CC[C@]3(C)[C@H](CC[C@@H]4[C@@]5(C)CCCNC(C)(C)[C@@H]5CC[C@]43C)[C@@H]12 ?
Response given: inactive

Challenge: # outcome recorded in this test, key = Sc1cccc2cccnc12
Response given: inactive

Challenge: For C=C1C(=O)O[C@H]2[C@H]1CC/C(COC(=O)NCc1nc3ccccc3[nH]1)=C\CC[C@@]1(C)O[C@@H]21 , which call appears in the assay record?
Response given: inactive

Challenge: Write down the call the test reported for this compound. Item: OCCNc1nc(NCCO)nc(Nc2ccc(C3=NN(c4cc(Cl)cc(Cl)c4)C(c4ccccc4)C3)cc2)n1 (centres undefined)
Response given: inactive

Challenge: Just curious, what result did O=C(/C(=C/c1ccc([N+](=O)[O-])cc1)SCc1ccccc1)c1ccc(Cl)cc1 get here?
Response given: inactive

Challenge: # fetch the recorded call for Oc1ccc(CNNc2ccnc3c(O)cccc23)c2cccnc12 here
Response given: inactive

Challenge: # fetch the recorded call for COC(=O)CCc1n(Cc2ccc3ccccc3c2)c2ccccc2[n+]1Cc1ccc2ccccc2c1 here
Response given: inactive

Challenge: Recorded call for CNCc1cccc2c1OCCOCCOCCN(CCN1CCOCC1)S(=O)(=O)c1ccc(cc1)-c1cnc(N)c(n1)C(=O)N2 ?
Response given: inactive

Challenge: Recorded call for S=C(Nc1ccccc1)c1ccccn1 ?
Response given: inactive

Challenge: In this assay, the call recorded for Cc1cccc(C)c1NCc1nnc(-c2ccco2)o1 was what?
Response given: inactive

Challenge: Any idea what this test logged for COCCOC(=O)COc1ccc(OC)cc1 ?
Response given: inactive

Challenge: Field: outcome | Entry: CC1(C)[C@@H](O)CC[C@]2(C)[C@H]3CC[C@@H]4[C@H]5[C@H](c6cn(-c7ccccc7)nn6)CC[C@]5(CO)CC[C@@]4(C)[C@]3(C)CC[C@@H]12
Response given: inactive

Challenge: State the result this test recorded for CC(=O)c1cnc(-c2ccccc2)nc1CBr .
Response given: inactive

Challenge: Could you kindly confirm the outcome this assay logged for Nc1c(C(=O)Nc2cccc3ccccc23)sc2nc3c(cc12)COCC3 ?
Response given: inactive

Challenge: For COc1ccc2nc(-c3ccc(Cl)cc3)cc(-c3nnc(SCC(=O)Nc4ccc(/C(C)=N\O)cc4)o3)c2c1 , which call appears in the assay record?
Response given: inactive

Challenge: Given C=C1C(=O)O[C@H]2[C@H]1CC/C(COC(=O)N1CCC[C@H]1C(=O)Nc1ccc(OC)c(C(N)=O)c1O)=C\CC[C@@]1(C)O[C@@H]21 , state the outcome it received in this test.
Response given: inactive

Challenge: # lookup: test call for N#CC1C(c2ccc(Cl)cc2)=Nc2c(c(-c3ccccc3)nn2-c2ccccc2)C12C(=O)Nc1ccc(Cl)cc12 (centres undefined)
Response given: inactive

Challenge: GET /call?item= CC(=O)Nc1ccc2c(c1)Cc1cc(F)ccc1-2 returns the recorded outcome of this test.
Response given: inactive
